experiment: NCI Yeast Anticancer Drug Screen. Data for the rad50 strain (AID 155);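 also: 0% = growth of vehicle-only cultures of the same strain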; conditions: S. cerevisiae rad50 strain growth inhibition; at 50.0 µM; stronger effect = higher value
About 79,000 compounds went through this panel and 15% of them were active in at least one assay; those are over-represented in the sample as a whole.
Items are presented alongside their recorded growth inhibition.
Give the value in % but do not write % after it.

// known answers, use as guide
>>> reported_measurement("O=[N+]([O-])c1ccc(Nc2ccccc2)c2nonc12")
-22.2
>>> reported_measurement("C[C@H](CCc1nc(C#N)c(N)o1)[C@H]1CC[C@H]2[C@@H]3[C@@H](O)CC4C[C@@H](O)CC[C@]4(C)[C@H]3C[C@@H](O)[C@]12C (stereo not given in full)")
26.4
>>> reported_measurement("CC[N+](C)(CC)C(Cc1ccccc1)c1ccccc1 (stereo not given)")
1
>>> reported_measurement("Nc1ccn(CCO)c(=O)n1")
-3.95
>>> reported_measurement("COC(CCl)OC")
3.75
>>> reported_measurement("Cc1cc(S(=O)(=O)Nc2n[nH]c(Nc3ccccc3)n2)c(SCC(=O)O)cc1Cl")
11.3
>>> reported_measurement("C=C1CC[N+]2(CCCC)CCCC12 (stereo not given)")
4.85
>>> reported_measurement("COC(=O)C(C(Br)C(=O)c1ccccc1)C(c1ccccc1)[N+](=O)[O-] (stereo not given)")
68.7
>>> reported_measurement("NC(=O)c1cccc2c1OCO2")
-8.75
>>> reported_measurement("COC(=O)OC/C=C\\COC(=O)OC")
5.8

Ask: Which growth inhibition is reported for this compound? CCOC(=O)CC(c1ccccc1)C(C#N)(c1ccccc1)N(C)C (stereo not given)
Result: 27.9

Ask: Any idea what growth inhibition was measured for `CC(=Nc1ccc(C)cc1N)c1c(O)cc(C)oc1=O` ?
Result: -8.75

Ask: # get_value(readout='growth inhibition', item= CC1=CC(N)C2CC1C2(C)C (stereo not given) )
Result: -9.3

Ask: Look at this compound and give its reported growth inhibition. `Cc1cc(=O)oc2cc(OCc3ccccc3)cc(O)c12`
Result: 22.8

Ask: If you can, please state the reported growth inhibition value of `O=S(=O)([O-])c1ccc(N=Cc2ccccc2[O-])cc1.O=S(=O)([O-])c1ccc(N=Cc2ccccc2[O-])cc1.[Co+2]` .
Result: 16.6

Ask: Which growth inhibition value is on record for `O=S(=O)(O)SCCCNCCCCCCCCNCCCSS(=O)(=O)O` ?
Result: -18.6

Ask: Quick one: growth inhibition for `Cc1cc(=O)[nH]c(=S)n1-c1nc2ccccc2o1` ?
Result: -11.2

Ask: What does the data say about its growth inhibition? Entry: `O=[N+]([O-])c1ccc(C=Nc2ccccc2)cc1`
Result: 41.1

Ask: State the recorded growth inhibition for this entry: NC1CC(=O)N(Cc2ccccc2)C1=O (stereo not given)
Result: 5.75

Ask: Reported growth inhibition, compound COc1cc2c(cc1OC)C(C#N)(C(c1ccccc1)c1ccccc1)N(C(=O)c1ccccc1)C=C2 (stereo not given) : ____
Result: 16.9

Ask: Can you look up the measured growth inhibition of CC(O)C(=O)N(CCO)CCO (stereo not given) for me?
Result: -5.4

Ask: Any idea what its growth inhibition is? The compound is `O=c1c2ccccc2nc2sc3nc4ccccc4c(=O)n3n12`
Result: 4

Ask: growth inhibition lookup needed for `CCOc1ccccc1N=Nc1c(C)nc(N)nc1OCC` , thanks.
Result: 6.65

Ask: Fill blank: measured growth inhibition of the compound `CNc1cc(S(=O)(=O)O)ccc1C` is ____.
Result: 1.45

Ask: For the compound shown here, `CCCCCCCCCc1cc[n+](C2=C([O-])C3=C(C(=O)C2=O)C2c4ccccc4C3c3ccccc32)cc1` , give the reported growth inhibition.
Result: 43.8

Ask: Which value of growth inhibition has been reported for `N#CC1(N(O)C(=O)Nc2ccccc2)CCCCC1` in the records?
Result: 5.55

Ask: Endpoint output: growth inhibition of `Cc1nc2ccccc2nc1C` . Value?
Result: -15.2

Ask: I have this compound here, Cc1ccccc1C1OC(=O)c2ccc3ccccc3c21 (stereo not given) , and I need its recorded growth inhibition.
Result: 10.6

Ask: Need growth inhibition, item `Cc1cccc(C)c1Nc1ncnc2c1cnn2C`
Result: -11.6

Ask: Recorded growth inhibition for `CO[C@@H]1[C@@H](O)c2ccccc2N1C(C)=O` , please?
Result: 13.4

Ask: Please look up its growth inhibition: NC(=O)N/N=C1/CCC(O)CC1CC(=O)O (stereo not given)
Result: -7.85

Ask: Fill in the blank: the reported growth inhibition of `CCC(/C=N/Nc1ccc([N+](=O)[O-])cc1[N+](=O)[O-])(CC)CC` is ____.
Result: -2.85

Ask: For `O=[N+]([O-])c1cccc(/C=N\NS(=O)(=O)c2ccc(Cl)cc2)c1O` , what is its reported growth inhibition?
Result: -11.7

The measured values listed here are drawn from PubChem BioAssay (NCI).
